Measured IC50 of individual entries
MEASUREMENT TARGET: Ras farnesyl transferase (Homo sapiens, UniProt P49354+P49356)
Construct: made in house
TEST DETAILS: Ras farnesyl transferase enzyme inhibition, H-Ras substrate
Format: biochemical
CONDITION SUMMARY: H-Ras substrate protein; recombinant farnesyl transferase; 30 minutes at 37° C.

CHEMICAL STRING | MEASUREMENT TARGET | QUANTITY MEASURED | ASSAY RESULT
CCSc1c(C(=O)N2CCN(C)CC2)c(-c2cccc3ccccc23)cn1Cc1cncn1Cc1ccc2c(c1)OCO2 | Ras farnesyl transferase (Homo sapiens, UniProt P49354+P49356) | IC50 | < 2 nM
CSc1c(C(=O)N2CCN(C)CC2)c(-c2cccc3ccccc23)cn1Cc1cncn1Cc1ccc2c(c1)OCO2 | Ras farnesyl transferase (Homo sapiens, UniProt P49354+P49356) | IC50 | < 0.95 nM
Cc1ncn(Cc2ccc3ccccc3c2)c1Cn1cc(C(=O)N2CCN(C)CC2)c(-c2cc(Cl)cc3ccccc23)c1 | Ras farnesyl transferase (Homo sapiens, UniProt P49354+P49356) | IC50 | < 10 nM

Next molecule, IC50 to be filled in.
Item: "COCCN(C)C(=O)c1cn(Cc2cncn2CCCN2CCOCC2)cc1-c1cccc2ccccc12" | IC50: < 10 nM

* * *

Measured IC50 of individual entries
MEASUREMENT TARGET: Ras farnesyl transferase (Homo sapiens, UniProt P49354+P49356)
Construct: made in house
TEST DETAILS: Ras farnesyl transferase enzyme inhibition, H-Ras substrate
Assay type: biochemical
CONDITION SUMMARY: H-Ras substrate protein; recombinant farnesyl transferase; 30 minutes at 37° C.
Procedure: In the present experiment, the improved Pompliano's method (see: Pompliano et al., Biochemistry, 31, 3800, 1992) was applied. […] The enzyme reaction was performed in 50 μl of 50 mM Sodium HEPES buffer solution containing 25 mM of potassium chloride, 25 mM of magnesium chloride, 10 mM of DTT and 50 μM of zinc chloride. […] Enzyme titer was measured in the unsaturated state of substrate where the concentration of Ras substrate protein and farnesyl transferase have quantitative relationship. […]

Some solved cases for reference:
COMPOUND | QUANTITY MEASURED | ASSAY RESULT
O=[N+]([O-])c1cn(Cc2cncn2Cc2ccc3ccccc3c2)cc1-c1cccc2ccccc12 [Example 49] | IC50 | < 30 nM
O=[N+]([O-])c1cn(Cc2cncn2Cc2ccc3c(c2)OCO3)cc1-c1cccc2ccccc12 [Example 36] | IC50 | < 5.5 nM

Item: O=C(c1cn(Cc2cncn2CCCOc2ccccc2)cc1-c1cccc2ccccc12)N1CCOCC1 [Example 6] | IC50: < 10 nM

Item: O=[N+]([O-])c1cn(Cc2cncn2CCc2cccc3ccccc23)cc1-c1cccc2ccccc12 [Example 46] | IC50: < 7 nM

* * *

MEASUREMENT TARGET: Ras farnesyl transferase (Rattus norvegicus, UniProt Q02293+Q04631)
Construct: endogenous in cells; host or cells: Rat2 fibroblasts transformed with C-Harvey-Ras or with the H-Ras/K-Ras polybasic-domain fusion
TEST DETAILS: In vivo (intracellular) Ras farnesylation inhibition in Rat2 cell line expressing C-Harvey-Ras
Type: cell-based
CONDITION SUMMARY: Rat2 cells expressing C-Harvey-Ras; concentration inhibiting 50% of farnesyl binding; read-out: H-Ras CIC50
pIC50: −log10 of the molar value.
Measured pIC50 of individual entries

Some solved cases for reference:
CHEMICAL STRING | pIC50
CCOCCCn1cnc(C)c1Cn1cc(C(=O)N2CCN(C)CC2)c(-c2cccc3ccccc23)c1 | > 8.20
CN1CCN(C(=O)c2cn(Cc3cncn3Cc3ccco3)cc2-c2cccc3ccccc23)CC1 | < 7.60

Item: "CN1CCN(C(=O)c2cn(Cc3c([N+](=O)[O-])ncn3Cc3ccc4c(c3)OCO4)cc2-c2cccc3ccccc23)CC1" | pIC50: < 7.52

Item: "COCCN(C)C(=O)c1cn(Cc2cncn2CCc2cccs2)cc1-c1cccc2ccccc12" | pIC50: < 7.60

Item: "CN1CCN(C(=O)c2cn(Cc3c(N)ncn3Cc3ccc4c(c3)OCO4)cc2-c2cccc3ccccc23)CC1" | pIC50: < 7.60

Item: "CCSc1c(C(=O)N2CCN(C)CC2)c(-c2cccc3ccccc23)cn1Cc1cncn1Cc1ccc2c(c1)OCO2" | pIC50: > 8.00

Item: "COCCN(C)C(=O)c1cn(Cc2cncn2CCCOCc2ccccc2)cc1-c1cccc2ccccc12" | pIC50: > 7.60

Item: "CON1CCN(C(=O)c2cn(Cc3c(C)ncn3Cc3ccc4c(c3)OCO4)cc2-c2cccc3ccccc23)CC1" | pIC50: < 7.52
